target: Glucocorticoid receptor (Homo sapiens); assay: Inhibition of glucocorticoid receptor (unknown origin) expressed in baculovirus-infected insect cells by fluorescence polarization assay
Metric name: pIC50
// returns pIC50 (minus log10 of molar concentration), number only

Suppose we examine the compound CCC(Cc1cccc(C)c1)NS(=O)(=O)c1c(C)cc(C)cc1C (stereo not given) ; what pIC50 value has been reported?
7.64

Consider the compound shown here: CCC(Cc1cc(C)c(O)c(C)c1)NS(=O)(=O)c1c(C)cc(C)cc1C (stereo not given) What is its recorded pIC50?
7.92

Looking for the measured pIC50 of CC[C@@H](Cc1ccc(O)c(C)c1C)NS(=O)(=O)c1c(C)cc(C)cc1C , can you help?
8.70

Which measured pIC50 value corresponds to CCC(Cc1ccc(O)c(C)c1C)NS(=O)(=O)c1c(C)cc(C)cc1C (racemic) ?
8.30

So what does the record say about pIC50 for CCC(Cc1ccc(C)cc1C)NS(=O)(=O)c1c(C)cc(C)cc1C (stereo not given) ?
6.80

###

So I've got a bunch of molecules here, and I need their IC50 values.
The response must be a number in nM with no trailing unit.

Record lookup: for Mineralocorticoid receptor (Homo sapiens, UniProt P08235), what IC50 belongs to CCC(Cc1cc(C)cc(C)c1)NS(=O)(=O)c1c(C)cc(C)cc1C (configuration not stated) ?
360

What reported IC50 corresponds to CCC(Cc1ccc(C)cc1C)NS(=O)(=O)c1c(C)cc(C)cc1C (configuration not stated) on Mineralocorticoid receptor (Homo sapiens, UniProt P08235)?
2400

What reported IC50 corresponds to CCC(Cc1cc(F)cc(F)c1)NS(=O)(=O)c1c(C)cc(C)cc1C (configuration not stated) on Mineralocorticoid receptor (Homo sapiens, UniProt P08235)?
400

Mineralocorticoid receptor (Homo sapiens, UniProt P08235) / IC50 / CCC(Cc1ccc(C)cc1)NS(=O)(=O)c1c(C)cc(C)cc1C (configuration not stated) : value?
1100

IC50 of CCC(Cc1ccc(OC)c(C)c1C)NS(=O)(=O)c1c(C)cc(C)cc1C (configuration not stated) on Mineralocorticoid receptor (Homo sapiens, UniProt P08235)?
330

Requested read-out IC50, target or system Mineralocorticoid receptor (Homo sapiens, UniProt P08235), entry CCC(Cc1cccc(C)c1)NS(=O)(=O)c1c(C)cc(C)cc1C (configuration not stated)
400

Recall the recorded IC50 for CC[C@@H](Cc1ccc(O)cc1C)NS(=O)(=O)c1c(C)cc(C)cc1C with Mineralocorticoid receptor (Homo sapiens, UniProt P08235) and state it.
Sequence (P08235 whole entry): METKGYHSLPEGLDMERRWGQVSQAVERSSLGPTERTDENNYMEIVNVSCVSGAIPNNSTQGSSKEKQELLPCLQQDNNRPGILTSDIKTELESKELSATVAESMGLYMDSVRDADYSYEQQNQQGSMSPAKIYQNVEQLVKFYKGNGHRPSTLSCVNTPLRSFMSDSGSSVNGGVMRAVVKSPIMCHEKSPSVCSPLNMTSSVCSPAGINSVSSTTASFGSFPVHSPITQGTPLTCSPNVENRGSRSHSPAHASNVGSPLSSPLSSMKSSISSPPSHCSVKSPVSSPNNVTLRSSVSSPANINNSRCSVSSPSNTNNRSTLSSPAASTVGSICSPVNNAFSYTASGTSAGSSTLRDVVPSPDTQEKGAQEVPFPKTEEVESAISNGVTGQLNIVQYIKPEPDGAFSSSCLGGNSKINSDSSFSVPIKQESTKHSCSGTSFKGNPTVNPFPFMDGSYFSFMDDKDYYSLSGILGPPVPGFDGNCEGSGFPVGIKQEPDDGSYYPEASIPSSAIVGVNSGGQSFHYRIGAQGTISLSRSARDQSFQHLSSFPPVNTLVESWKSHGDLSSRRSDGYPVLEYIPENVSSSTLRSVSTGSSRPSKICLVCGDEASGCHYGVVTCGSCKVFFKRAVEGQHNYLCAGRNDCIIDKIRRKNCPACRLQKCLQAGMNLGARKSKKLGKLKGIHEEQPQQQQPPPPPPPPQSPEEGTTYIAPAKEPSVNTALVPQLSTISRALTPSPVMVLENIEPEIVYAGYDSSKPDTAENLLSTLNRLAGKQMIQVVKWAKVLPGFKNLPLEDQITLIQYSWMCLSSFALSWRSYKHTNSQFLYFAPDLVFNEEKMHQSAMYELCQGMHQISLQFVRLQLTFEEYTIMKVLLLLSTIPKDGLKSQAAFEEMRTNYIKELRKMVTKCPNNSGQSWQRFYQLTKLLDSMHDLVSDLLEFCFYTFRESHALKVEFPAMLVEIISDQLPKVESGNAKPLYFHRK
1000

// lookup IC50 | system=Mineralocorticoid receptor (Homo sapiens, UniProt P08235) | key= CCC(Cc1cccc2ccccc12)NS(=O)(=O)c1c(C)cc(C)cc1C (configuration not stated)
190

Lookup: IC50 / Mineralocorticoid receptor (Homo sapiens, UniProt P08235) / CCC(Cc1cc(Cl)cc(Cl)c1)NS(=O)(=O)c1c(C)cc(C)cc1C (configuration not stated)
150

Provide the documented IC50 with Mineralocorticoid receptor (Homo sapiens, UniProt P08235) as the system for CCC(Cc1cc(C)c(O)c(C)c1)NS(=O)(=O)c1c(C)cc(C)cc1C (configuration not stated)
480

What reported IC50 corresponds to CCC(Cc1ccc(O)c(C)c1C)NS(=O)(=O)c1c(C)cc(C)cc1C (racemic) on Mineralocorticoid receptor (Homo sapiens, UniProt P08235)?
240

###

biological target: Glucocorticoid receptor (Homo sapiens, UniProt P04150); assay: Inhibition of glucocorticoid receptor (unknown origin) expressed in baculovirus-infected insect cells by fluorescence polarization assay
Sequence (P04150 whole entry): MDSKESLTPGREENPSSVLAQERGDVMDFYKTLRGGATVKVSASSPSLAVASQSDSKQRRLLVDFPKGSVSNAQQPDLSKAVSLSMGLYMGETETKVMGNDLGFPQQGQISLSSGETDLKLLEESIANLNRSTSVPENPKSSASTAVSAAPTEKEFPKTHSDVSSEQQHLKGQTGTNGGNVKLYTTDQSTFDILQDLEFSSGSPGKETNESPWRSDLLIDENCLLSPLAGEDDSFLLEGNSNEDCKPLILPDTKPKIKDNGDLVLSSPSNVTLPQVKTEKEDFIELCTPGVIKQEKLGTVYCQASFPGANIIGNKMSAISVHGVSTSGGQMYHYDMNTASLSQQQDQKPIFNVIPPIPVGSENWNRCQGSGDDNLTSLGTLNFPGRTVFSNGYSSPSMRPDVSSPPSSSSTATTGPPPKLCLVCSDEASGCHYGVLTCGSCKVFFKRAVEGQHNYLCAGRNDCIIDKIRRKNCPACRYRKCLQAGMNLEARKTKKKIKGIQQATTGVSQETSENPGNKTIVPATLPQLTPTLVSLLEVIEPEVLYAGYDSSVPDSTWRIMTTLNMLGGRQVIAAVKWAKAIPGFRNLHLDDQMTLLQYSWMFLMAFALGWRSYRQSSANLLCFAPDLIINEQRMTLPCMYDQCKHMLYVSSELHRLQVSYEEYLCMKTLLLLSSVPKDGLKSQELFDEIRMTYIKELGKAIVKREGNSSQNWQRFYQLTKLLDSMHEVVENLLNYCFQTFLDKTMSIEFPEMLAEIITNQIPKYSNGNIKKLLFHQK
Metric name: pIC50
The value called pIC50 is obtained by taking minus log10 of the concentration in mol/L.

What does the record list as pIC50 for CCC(Cc1cc(C)c(OC)c(C)c1)NS(=O)(=O)c1c(C)cc(C)cc1C (stereo not given) ?
6.60

Name the recorded pIC50 for CC[C@@H](Cc1ccc(O)cc1)NS(=O)(=O)c1c(C)cc(C)cc1C .
6.92

If you can, please state the reported pIC50 value of CCC(Cc1cccc2ccccc12)NS(=O)(=O)c1c(C)cc(C)cc1C (stereo not given) .
8.00

# query: pIC50 of entry CCC(Cc1ccc(C)cc1)NS(=O)(=O)c1c(C)cc(C)cc1C (stereo not given)
6.64

Name the reported pIC50 value associated with the compound CCC(Cc1c(C)cccc1C)NS(=O)(=O)c1c(C)cc(C)cc1C (stereo not given)
6.96

// pIC50 lookup, key: CCC(Cc1cc(C)ccc1C)NS(=O)(=O)c1c(C)cc(C)cc1C (stereo not given)
7.60

Report pIC50 for CCC(Cc1cccc(C)c1C)NS(=O)(=O)c1c(C)cc(C)cc1C (stereo not given) please.
8.00

Give its pIC50 value. Item: CCC(Cc1ccc(OC)c(C)c1C)NS(=O)(=O)c1c(C)cc(C)cc1C (stereo not given)
7.21

Requested field: pIC50. Item: CC[C@@H](Cc1ccc(O)c(C)c1)NS(=O)(=O)c1c(C)cc(C)cc1C
7.64

For the compound CC[C@@H](Cc1ccc(O)cc1C)NS(=O)(=O)c1c(C)cc(C)cc1C , what pIC50 is on record?
7.57

###

Kindly state pIC50 for each of the entries shown.
biological target: Glucocorticoid receptor (Homo sapiens, UniProt P04150); assay: Agonist activity at glucocorticoid receptor in human foreskin fibroblasts assessed as IL-1-mediated IL-6 synthesis after 24 hrs
pIC50: −log10 of the molar value.

Form entry - test system: Glucocorticoid receptor (Homo sapiens, UniProt P04150); read-out: pIC50; molecule: CC[C@@H](Cc1ccc(O)c(C)c1)NS(=O)(=O)c1c(C)cc(C)cc1C
< 5.70

# returns recorded pIC50 (system: Glucocorticoid receptor (Homo sapiens, UniProt P04150)) for CCC(Cc1ccc(C)cc1C)NS(=O)(=O)c1c(C)cc(C)cc1C (stereo not given)
< 5.00

Item: CC[C@@H](Cc1ccc(O)c(C)c1C)NS(=O)(=O)c1c(C)cc(C)cc1C Test system: Glucocorticoid receptor (Homo sapiens, UniProt P04150) Read-out: pIC50 Value: ?
7.66

# returns recorded pIC50 (system: Glucocorticoid receptor (Homo sapiens, UniProt P04150)) for CCC(Cc1cc(F)cc(F)c1)NS(=O)(=O)c1c(C)cc(C)cc1C (stereo not given)
< 5.00

What reported pIC50 corresponds to CCC(Cc1ccc(C)cc1)NS(=O)(=O)c1c(C)cc(C)cc1C (stereo not given) on Glucocorticoid receptor (Homo sapiens, UniProt P04150)?
< 5.00

Observed pIC50 on Glucocorticoid receptor (Homo sapiens, UniProt P04150) for CCC(Cc1cc(Cl)cc(Cl)c1)NS(=O)(=O)c1c(C)cc(C)cc1C (stereo not given) , please.
< 5.00

Notebook: pull reported pIC50 for Glucocorticoid receptor (Homo sapiens, UniProt P04150), entry CCC(Cc1cc(C)c(OC)c(C)c1)NS(=O)(=O)c1c(C)cc(C)cc1C (stereo not given)
< 5.70

Request body: readout pIC50, system Glucocorticoid receptor (Homo sapiens, UniProt P04150), query CCC(Cc1cccc(C)c1C)NS(=O)(=O)c1c(C)cc(C)cc1C (stereo not given) . Return the value.
< 5.00

// lookup pIC50 | system=Glucocorticoid receptor (Homo sapiens, UniProt P04150) | key= CCC(Cc1cccc(C)c1)NS(=O)(=O)c1c(C)cc(C)cc1C (stereo not given)
< 5.00

Request body: readout pIC50, system Glucocorticoid receptor (Homo sapiens, UniProt P04150), query CCC(Cc1ccc(O)c2ccccc12)NS(=O)(=O)c1c(C)cc(C)cc1C (stereo not given) . Return the value.
7.64
